- assayed.system: Adenosine receptor A1 (Homo sapiens)
- test.method.notes: Allosteric enhancing activity at human adenosine A1 receptor expressed in CHO cells assessed as increase in [3H]-2-chloro-N6-cyclopentyladenosine Bmax at 10 uM after 90 mins relative to control
- Format: cell-based
observed.property: fold change (FC)

[A] Cc1sc(N)c(C(=O)c2ccc(Cl)cc2)c1CN1CCN(c2ccc(Cl)c(Cl)c2)CC1
[B] Cc1sc(N)c(C(=O)c2ccc(Cl)cc2)c1CN1CCN(c2ccc([N+](=O)[O-])cc2)CC1
fold change (FC) comparison. Which is larger, A or B ? Response format: the label of the selected entry.
A

###

- assayed.system: Adenosine receptor A1 (Homo sapiens)
- Sequence (whole entry): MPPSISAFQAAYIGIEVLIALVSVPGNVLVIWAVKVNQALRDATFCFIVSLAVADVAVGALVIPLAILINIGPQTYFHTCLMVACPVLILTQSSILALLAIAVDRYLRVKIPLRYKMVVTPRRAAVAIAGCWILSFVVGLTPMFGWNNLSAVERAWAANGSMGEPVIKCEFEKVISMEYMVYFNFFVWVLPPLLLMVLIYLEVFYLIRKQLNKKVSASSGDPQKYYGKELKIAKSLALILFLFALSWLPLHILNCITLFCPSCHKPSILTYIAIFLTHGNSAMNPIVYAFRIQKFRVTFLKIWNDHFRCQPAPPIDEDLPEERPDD
- test.method.notes: Allosteric enhancing activity at human adenosine A1 receptor expressed in CHO cells assessed as increase in CCPA-induced [3H]DPCPX displacement at 10 uM after 90 mins relative to control
- Assay type: cell-based
observed.property: Ratio Ki

>  <chemical.string>
Cc1sc(N)c(C(=O)c2ccc(Cl)cc2)c1CN1CCN(c2cccc(C(F)(F)F)c2)CC1

>  <endpoint.value>
5.7

$$$$

[1] Nc1sc(-c2ccc(Cl)cc2)c(CN2CCN(Cc3ccccc3)CC2)c1C(=O)c1ccc(Cl)cc1
[2] Cc1sc(N)c(C(=O)c2ccc(Cl)cc2)c1CN1CCN(Cc2ccccc2)CC1
Hi! Which is lower in terms of Ratio Ki, the first one 1 or the second one 2 ? Response format: the label of the selected entry.
2
(2: 1.4, 1: 6.8)
